- Tested on: HCT-15 colon
- Method description: NCI tumour cell line growth inhibition, 48 h
Measure name: TGI

## Task Item CCOC(=O)CN1CCSC1=NC#N : provide TGI
## Result > 100 µM

## Task Item Cc1cc(C)c(C)c(-n2[nH]c(=O)n(C)c2=O)c1C : provide TGI
## Result > 100 µM

## Task Item Cc1ccc(-c2n[nH]c(=O)[nH]2)cc1 : provide TGI
## Result > 100 µM

## Task Item CN1C(=O)C(O)CC1c1cccc(F)c1 (stereo unspecified) : provide TGI
## Result > 100 µM

## Task Item CC(C)(C)OC(=O)CN1CCNCCN(CC(=O)OC(C)(C)C)CC1 : provide TGI
## Result > 100 µM

## Task Item CC1=NN(C(=O)c2ccc(Cl)cc2)C(=O)/C1=C/c1cccc([N+](=O)[O-])c1 : provide TGI
## Result > 100 µM

## Task Item CC(=O)Nc1ccc(N2C(=O)/C(=C\c3cccc(Oc4ccccc4)c3)SC2c2ccccc2)cc1 (stereo unspecified) : provide TGI
## Result > 100 µM

## Task Item CC1CC[C@@]2(OC1)OC1C[C@H]3[C@@H]4CC[C@H]5CC(OC6OC(CO)C(OC7OC(CO)C(O)C(O)C7O)C(O)C6O)CCC5(C)[C@H]4CCC3(C)C1[C@@H]2C (stereo partly specified) : provide TGI
## Result 28.9 µM

====

- System: SF-268 CNS
- Method description: NCI tumour cell line growth inhibition, 48 h
Measure name: TGI (µM)
Value expressed in µM; do not type the unit.

Answered cases to consult:
## Task Item CCc1c2c(nc3cccc(N)c13)-c1cc3c(c(=O)n1C2)COC(=O)[C@]3(O)CC : provide TGI
## Result 78

## Task Item O=[N+]([O-])/C(C(Cl)=C(Cl)Cl)=C1/OCCS1 : provide TGI
## Result 71.1

## Task Item CCOC(=O)N1CCN(S(=O)(=O)c2oc(-c3ccc(Cl)cc3)nc2C#N)CC1 : provide TGI
## Result 6.75

## Task Item CC(=O)OC1C2(CC3N4C(=O)C5(CO)SSC4(CC31O)C(=O)N5C)OC(C)C(C)(C)C2=O (stereo unspecified) : provide TGI
## Result 2.95

## Task Item Cn1c(COC(=O)NC2CCCCC2)c(COC(=O)NC2CCCCC2)c2ccc3cc(Cl)c(Cl)cc3c21 : provide TGI
## Result 24.5

## Task Item COc1ccc(/C=C(\NC(=O)c2ccccc2)C(=O)NN(C)c2ccnc3cc(Cl)ccc23)cc1OC : provide TGI
## Result 35.4

## Task Item O=c1cccccc1NCCCCCCCCCNc1cccccc1=O : provide TGI
## Result 45.7

## Task Item CC(CCc1ccc2c(c1)c(=N)c1ccc(N)cc1n2O)CC(C)(C)C (stereo unspecified) : provide TGI
## Result 4.23

New cases:
## Task Item O=c1oc2ccc(Cl)cc2c(=O)n1-c1ccc(I)cc1F : provide TGI
## Result 4.11

## Task Item C/C1=C\CC[C@@](C)(O)[C@@H]2CC3[C@@H](OC(=O)C34CC4)[C@@H](O2)[C@H](C)CCC1 (stereo partly specified) : provide TGI
## Result 73.3

====

TGI for assorted molecules
- System: OVCAR-5 ovarian
- Method description: NCI tumour cell line growth inhibition, 48 h

Answered cases to consult:
## Task Item CCOC(=O)C(NC(=O)NC(C(=O)OCC)C(=O)OCC)C(=O)OCC : provide TGI
## Result > 100 µM

## Task Item CCCCCCCCCCCC1N=C(N)NC(CCCO)=C1C(=O)OC (stereo unspecified) : provide TGI
## Result 16.6 µM

## Task Item CCc1c2c(nc3cccc(N)c13)-c1cc3c(c(=O)n1C2)COC(=O)[C@]3(O)CC : provide TGI
## Result 0.115 µM

## Task Item O=C(CC(C(=O)c1ccsc1)c1ccccc1)c1cccs1 (stereo unspecified) : provide TGI
## Result > 100 µM

## Task Item O=C1CCC2(c3ccccc3)Nc3cc(Cl)ccc3N12 (stereo unspecified) : provide TGI
## Result > 100 µM

## Task Item COc1ccc(/C=C2\CCCC3=C2NC(C)=NC3c2ccc(OC)c(OC)c2)cc1OC (stereo unspecified) : provide TGI
## Result > 100 µM

## Task Item N#Cc1c2c([nH]c(=O)c1C#N)CCCC2 : provide TGI
## Result > 100 µM

## Task Item O=C1CCC[C@H]2O[C@@H](COCc3ccccc3)C[C@@H]12 : provide TGI
## Result > 100 µM

New cases:
## Task Item Cc1cccc(C)c1NC(=O)CCCC(=O)C1CCC/C1=N\NC(=O)C(=O)NN (stereo unspecified) : provide TGI
## Result > 100 µM

## Task Item N#Cc1ccccc1NC(=O)c1ccccc1 : provide TGI
## Result > 100 µM

## Task Item COc1cc2c(c(OC)c1OC)C(=O)[C@H]1OC(=O)N[C@@H]21 : provide TGI
## Result > 100 µM

====

- Tested on: SF-539 CNS
- Method description: NCI tumour cell line growth inhibition, 48 h
TGI for assorted compounds
Value expressed in µM; do not type the unit.

## Task Item Cn1cc(-c2ccc(CNc3cc(-c4cnc5cc(OCCCN6CCCC6)ccn45)ncn3)cc2)cn1 : provide TGI
## Result 2.46

# evaluate next
## Task Item CN(C)c1ccc(/C=C/c2cc[n+](C)c3ccccc23)cc1 : provide TGI
## Result 18.7

====

- Test system: NCI-H226 lung
- Method description: NCI tumour cell line growth inhibition, 48 h; in the data active = GI50 below about 0.43 µM; inactive = the rest
Can you answer with just one of these options? 1.0 for active, 0.0 for inactive

## Task What is the recorded call for this compound in the test? O=c1[nH]cnc2c(C3OC(CO)C(O)C3O)scc12 (stereo not drawn)
## Result 0.0

## Task What is the recorded call for this compound in the test? COc1ccc2c(c1)nc(N)c1c3cccnc3cn21
## Result 0.0

## Task What is the recorded call for this compound in the test? CCCCC[C@H]1C/C=C2/C(=O)C(Cl)=C[C@@H]2C/C=C\CCCC(=O)O[C@@H](CCCCC)C/C=C2/C(=O)C(Cl)=C[C@@H]2C/C=C\CCCC(=O)O1
## Result 1.0

New cases:
## Task What is the recorded call for this compound in the test? COc1ccc2c(c1)C(=O)c1c-2n(CCCN2CCOCC2)c(=O)c2ccccc12
## Result 0.0

## Task What is the recorded call for this compound in the test? COc1cc(/C=C(/c2ccccc2)[N+](=O)[O-])c(OC)c2c1OCO2
## Result 0.0

====

- Tested on: SK-MEL-5 melanoma
- Method description: NCI tumour cell line growth inhibition, 48 h
Measure name: TGI

## Task Item S=c1ssc(Sc2ccccn2)c1Cl : provide TGI
## Result 15.3 µM

## Task Item Cc1ccc(NC(=O)CC(=O)n2nc(C)c(N=Nc3ccc(S(=O)(=O)CCOS(=O)(=O)O)cc3)c2C)cc1 : provide TGI
## Result > 100 µM

## Task Item C/C(=N\NC(N)=O)C(CN(C)C)C(c1ccccc1)c1c(O)c2ccccc2oc1=O (stereo not given) : provide TGI
## Result > 100 µM

## Task Item Fc1ccc(Nc2nccc(-c3c(-c4ccc(C(F)(F)F)cc4)nn4ncccc34)n2)cc1F : provide TGI
## Result > 25 µM

# evaluate next
## Task Item Cc1ccc(-c2n[nH]c(=O)[nH]2)cc1 : provide TGI
## Result > 100 µM

====

- Tested on: HCT-15 colon
- Method description: NCI tumour cell line growth inhibition, 48 h
GI50 for assorted compounds

Answered cases to consult:
## Task Write down the reported GI50 (system: HCT-15 colon) of C=C(C)CCC(C)N1CCC(N2CCC(C(=O)NCCc3ccccc3)CC2)CC1 (stereo not drawn)
## Result 16.7 µM

## Task Write down the reported GI50 (system: HCT-15 colon) of CCOC(=O)c1c(C)n(Cc2ccc(Cl)cc2Cl)c2c1cc1oc(=O)c(=O)n3c(Cc4ccccc4)nc2c13
## Result 3.92 µM

New cases:
## Task Write down the reported GI50 (system: HCT-15 colon) of N#CC1C(N)=NNC12Nc1ccccc1N2 (stereo not drawn)
## Result 31.4 µM

## Task Write down the reported GI50 (system: HCT-15 colon) of Cn1cc(-c2ccc3c(c2)CCN3C(=O)Cc2cccc(C(F)(F)F)c2)c2c(N)ncnc21
## Result 1.77 µM

## Task Write down the reported GI50 (system: HCT-15 colon) of COc1ccccc1-c1c(C)nn2c(NCc3ccccn3)cc(C)nc12
## Result 9.76 µM

## Task Write down the reported GI50 (system: HCT-15 colon) of CCc1c[nH]c2ncnc(N3CC[C@@](N)(CNC(=O)c4ccc(F)cc4F)C3)c12
## Result 43.6 µM

## Task Write down the reported GI50 (system: HCT-15 colon) of O=c1[nH]cnc2c(C3OC(CO)C(O)C3O)scc12 (stereo not drawn)
## Result 60 µM

## Task Write down the reported GI50 (system: HCT-15 colon) of Cc1c(C)c2ccc(OC/C=C3\CCC(=O)O3)cc2oc1=O
## Result 5.4 µM
